# assay.notes: Cytotoxicity against human Jurkat cells assessed as cell viability at 50 uM after 48 hrs by XTT assay relative to control
# Format: cell-based
# test.conditions: read-out: Activity
Assign viability at 48 h, 50 µM to each entry below.
Give bare numbers, in %.

Could you report viability at 48 h, 50 µM for every entry in the following list?
1. C[C@@H](NC(=O)OCC(F)(F)Cl)c1nc2ccc(F)cc2s1
2. CCCCOC(=O)N[C@H](C)c1nc2ccc(F)cc2s1
3. CCOC(=O)N[C@H](C)c1nc2ccc(F)cc2s1
4. C[C@@H](NC(=O)OCC(F)(F)C(F)F)c1nc2ccc(F)cc2s1

Found:
1: 89.6; 2: 88.7; 3: 87.9; 4: 89.3

* * *

# assay.notes: Cytotoxicity against human Jurkat cells assessed as cell viability at 250 uM after 48 hrs by XTT assay relative to control
# Assay type: cell-based
# test.conditions: read-out: Activity
Assign viability at 48 h, 250 µM to each entry below.
Numbers only, in %.

Could you report viability at 48 h, 250 µM for every entry in the following list?
1. CCOC(=O)N[C@H](C)c1nc2ccc(F)cc2s1
2. C[C@@H](NC(=O)OCC(F)(F)Cl)c1nc2ccc(F)cc2s1
3. CCCCOC(=O)N[C@H](C)c1nc2ccc(F)cc2s1

Found:
1. 77
2. 74
3. 49.5

Lookup: Quick one: viability at 48 h, 250 µM for "C[C@@H](NC(=O)OCC(F)(F)C(F)F)c1nc2ccc(F)cc2s1" ?
Found: 80.3

* * *

# system.tested: Cholinesterase (Equus caballus, UniProt P81908)
# Sequence (P81908 whole entry): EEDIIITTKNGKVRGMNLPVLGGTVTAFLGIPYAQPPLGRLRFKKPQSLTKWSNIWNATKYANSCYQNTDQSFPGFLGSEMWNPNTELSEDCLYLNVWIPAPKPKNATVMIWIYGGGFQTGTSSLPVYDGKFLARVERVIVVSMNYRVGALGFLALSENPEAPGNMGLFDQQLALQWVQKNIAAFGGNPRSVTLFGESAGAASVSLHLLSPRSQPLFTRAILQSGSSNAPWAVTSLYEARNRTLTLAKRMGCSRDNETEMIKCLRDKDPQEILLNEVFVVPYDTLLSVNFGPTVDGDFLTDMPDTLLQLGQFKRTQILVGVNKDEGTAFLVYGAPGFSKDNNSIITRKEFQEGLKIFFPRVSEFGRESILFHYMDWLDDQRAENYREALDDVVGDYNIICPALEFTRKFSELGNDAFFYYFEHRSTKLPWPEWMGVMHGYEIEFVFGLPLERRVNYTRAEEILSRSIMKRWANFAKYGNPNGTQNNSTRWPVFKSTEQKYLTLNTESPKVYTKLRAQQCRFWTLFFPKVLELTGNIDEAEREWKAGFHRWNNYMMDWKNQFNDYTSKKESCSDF
# assay.notes: Inhibition of equine serum BChE by spectrophotometric-based Ellman's method
measure.name: pIC50
Numbers only, as −log10 of the molar value.

chemical.string | pIC50
C[C@@H](NC(=O)OCC(F)(F)C(F)(F)C(F)(F)F)c1nc2ccc(F)cc2s1 | 4.13
CC(C)OC(=O)N[C@H](C)c1nc2ccc(F)cc2s1 | 4.49
COC(=O)N[C@H](C)c1nc2ccc(F)cc2s1 | 4.04

Now, please, on to the next compound.
Lookup: Quick one: pIC50 for "CC(C)COC(=O)N[C@H](C)c1nc2ccc(F)cc2s1" ?
Found: 4.40

* * *

# assay.notes: n-Octanol-water partition coefficient, log P of the compound after 15 mins by shake flask method
# Type: physicochemical
measure.name: logP at 0.25 h
Answers are plain numbers.

Worked cases, logP at 0.25 h given:
chemical.string | measure.name | number
CC(C)OC(=O)N[C@H](C)c1nc2ccc(F)cc2s1 | logP at 0.25 h | 5.33
COC(=O)N[C@H](C)c1nc2ccc(F)cc2s1 | logP at 0.25 h | 2.5
CCCOC(=O)N[C@H](C)c1nc2ccc(F)cc2s1 | logP at 0.25 h | 4.56
CCOC(=O)N[C@H](C)c1nc2ccc(F)cc2s1 | logP at 0.25 h | 4.2
C[C@@H](NC(=O)OC(C)(C)C)c1nc2ccc(F)cc2s1 | logP at 0.25 h | 4.41
C[C@@H](NC(=O)OCC(Cl)(Cl)Cl)c1nc2ccc(F)cc2s1 | logP at 0.25 h | 2.34
CCCCOC(=O)N[C@H](C)c1nc2ccc(F)cc2s1 | logP at 0.25 h | 4.82
C[C@@H](NC(=O)OCCCl)c1nc2ccc(F)cc2s1 | logP at 0.25 h | 3.09

Could you report logP at 0.25 h for every entry in the following list?
1. CC(C)COC(=O)N[C@H](C)c1nc2ccc(F)cc2s1
2. COCCOC(=O)N[C@H](C)c1nc2ccc(F)cc2s1
3. C[C@@H](NC(=O)OCCBr)c1nc2ccc(F)cc2s1
4. C[C@@H](NC(=O)OCC(F)(F)Cl)c1nc2ccc(F)cc2s1

Found:
4.24
3.35
3.17
2.82

* * *

Parameter IC50, tested on Acetylcholinesterase (Electrophorus electricus), listed per item.
Sequence (O42275 whole entry): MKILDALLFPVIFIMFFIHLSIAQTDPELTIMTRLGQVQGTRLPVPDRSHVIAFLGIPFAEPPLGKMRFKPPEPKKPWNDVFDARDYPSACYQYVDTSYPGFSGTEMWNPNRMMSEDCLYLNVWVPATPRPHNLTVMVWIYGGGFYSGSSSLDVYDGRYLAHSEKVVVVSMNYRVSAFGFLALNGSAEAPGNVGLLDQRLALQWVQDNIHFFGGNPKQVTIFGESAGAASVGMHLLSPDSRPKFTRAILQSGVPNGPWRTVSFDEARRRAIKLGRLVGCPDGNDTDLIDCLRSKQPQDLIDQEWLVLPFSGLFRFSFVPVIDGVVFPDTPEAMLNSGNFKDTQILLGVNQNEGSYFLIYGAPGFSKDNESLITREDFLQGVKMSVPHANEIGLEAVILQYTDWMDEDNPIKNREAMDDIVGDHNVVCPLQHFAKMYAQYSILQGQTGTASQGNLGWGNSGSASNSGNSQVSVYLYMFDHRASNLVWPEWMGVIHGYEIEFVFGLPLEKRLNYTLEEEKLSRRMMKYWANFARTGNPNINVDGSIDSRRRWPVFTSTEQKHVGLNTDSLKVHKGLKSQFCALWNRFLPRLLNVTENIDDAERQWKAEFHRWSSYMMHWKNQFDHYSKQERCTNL
Numbers only, in µM.

Worked cases, IC50 given:
chemical.string | system.tested | value.unit | number
C[C@@H](NC(=O)OCCBr)c1nc2ccc(F)cc2s1 | Acetylcholinesterase (Electrophorus electricus) | µM | 11.4
CCOC(=O)N[C@H](C)c1nc2ccc(F)cc2s1 | Acetylcholinesterase (Electrophorus electricus) | µM | 6.06
C[C@@H](NC(=O)OC(C)(C)C)c1nc2ccc(F)cc2s1 | Acetylcholinesterase (Electrophorus electricus) | µM | 10.5
C[C@@H](NC(=O)OCCCl)c1nc2ccc(F)cc2s1 | Acetylcholinesterase (Electrophorus electricus) | µM | 12.7

Now, please, on to the next compound.
Lookup: Quick one: IC50 for "CCCOC(=O)N[C@H](C)c1nc2ccc(F)cc2s1" ?
Found: 13.1
